Assay: p53 small molecule agonists, cell-based qHTS assay with rat liver microsomes (AID 1963578)
Conditions: HCT-116 p53RE-bla, beta-lactamase ratio, 16 h; series mostly up to 66 µM
Excerpt: U.S. Tox21 Program National Center for Advancing Translational Sciences [NCATS] Division of Preclinical Innovation [DPI] U.S. Environmental Protection Agency [EPA] National Institutes of Environmental Health Sciences [NIEHS] National Toxicology Program [NTP] U.S. Food and Drug Administration [FDA] […] The activation of the reporter gene under culture conditions can be detected by fluorescence intensity. […]
Inconclusive results are not listed. The source made the active and inactive calls. The call rests on the fitted dose curve.
Endpoint Label: activation

The cases that follow already have their activation on record.
[[record]]
molecule = "NCC1CCC(C(=O)Oc2ccc(CCC(=O)O)cc2)CC1 (centres undefined)"
result_value = "inactive"

[[record]]
molecule = "C=COCCCCO"
result_value = "inactive"

[[record]]
molecule = "CCCCCCOC(=O)CCC"
result_value = "inactive"

[[record]]
molecule = "CCCC(C)C"
result_value = "inactive"

[[record]]
molecule = "CCNS(=O)(=O)c1ccc(C)cc1"
result_value = "inactive"

[[record]]
molecule = "Oc1cccc2[nH]ccc12"
result_value = "inactive"

[[record]]
molecule = "C=CC(C)(O)CCCC(C)CCCC(C)CCCC(C)C (centres undefined)"
result_value = "inactive"

[[record]]
molecule = "CCCCOc1cc(C(=O)NCCN(CC)CC)c2ccccc2n1"
result_value = "inactive"

[[record]]
molecule = "COC[C@H](c1ccc(C(F)(F)F)cc1)N1CCN(C2(C)CCN(C(=O)c3c(C)ncnc3C)CC2)C[C@H]1C"
result_value = "inactive"

[[record]]
molecule = "Cc1cccc(N(C)C(=S)Oc2ccc3c(c2)CCC3)c1"
result_value = "inactive"


For every item in the list below, what is its measured activation?
1. COc1ccc(C2C(=O)c3ccccc3C2=O)cc1
2. O=C(O)c1cc(C(=O)O)c(C(=O)O)cc1C(=O)O

Response:
1: inactive; 2: inactive

For every item in the list below, what is its measured activation?
1. CCO
2. CC(=O)C1C(=O)C=C(C)OC1=O (centres undefined)

Response:
1. inactive
2. inactive
